Reported absorption ratio (ELISA) values are given for each entry in this list.
study-system: T1, mouse P2X7 (mouse, UniProt Q9Z1M0 1-595)
T1 construct: on transfected CHO or Hek293 cells, or endogenous on Yac-1 cells; also called mP2X7; mouse purinoceptor P2X7
T1 sequence: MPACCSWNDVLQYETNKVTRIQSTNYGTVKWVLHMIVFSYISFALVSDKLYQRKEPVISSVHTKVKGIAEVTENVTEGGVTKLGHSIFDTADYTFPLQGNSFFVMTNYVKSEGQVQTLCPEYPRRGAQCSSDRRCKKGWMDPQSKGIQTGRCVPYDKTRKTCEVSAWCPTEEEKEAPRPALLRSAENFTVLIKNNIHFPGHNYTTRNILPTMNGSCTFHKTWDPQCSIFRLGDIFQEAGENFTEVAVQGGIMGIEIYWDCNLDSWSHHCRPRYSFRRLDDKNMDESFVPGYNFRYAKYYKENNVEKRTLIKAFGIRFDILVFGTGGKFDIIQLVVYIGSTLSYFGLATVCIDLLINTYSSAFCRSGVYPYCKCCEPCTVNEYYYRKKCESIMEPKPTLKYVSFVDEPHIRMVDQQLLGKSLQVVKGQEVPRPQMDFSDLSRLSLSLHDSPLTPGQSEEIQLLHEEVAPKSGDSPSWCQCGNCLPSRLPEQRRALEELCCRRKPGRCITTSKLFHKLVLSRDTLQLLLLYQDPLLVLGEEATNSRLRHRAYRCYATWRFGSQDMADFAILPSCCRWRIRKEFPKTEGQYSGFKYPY
method: phage ELISA, mP2X7-CHO vs control CHO cells
Number in ratio, nothing else.

Known results for binders:
binder	unit-label	absorption ratio (ELISA)
P2X7PMP8F5 (VHH, family 5, 2; on phage or c-myc/His6-tagged in assays) VHH: EVQLVKSGGGLVQAGGSLRLSCAASGSFFRVNNMAWYRQAPGKQRELVADITRGDRTNYADSVNGRFTISRDNVRNTVYLQMNGLKPEDTAVYYCYARIELGPLVPRDYWGQGTQVTVSS	ratio	16
P2X7PMP14F6 (VHH, family 5, 2; on phage or c-myc/His6-tagged in assays) VHH: EVQLVESGGGLVQAGGPLRLSCAASGSFFRVNNMAWYRQAPGKQRELVADITRGDRTNYADSVNGRFTISRDNVRNTVYLQMNGLKPEDTAVYYCYARIELGVLEPRDYWGQGTQVTVSS	ratio	15
P2X7PMP8C12 (VHH, family 5, 3; on phage or c-myc/His6-tagged in assays) VHH: EVQLVESGGGLVQAGGSLRLSCAASGSFFRVNNMAWYRQAPGKQRELVADITRGDRTNYADSVNGRFTISRDNVRNTVYLQMNGLKPEDTAVYYCYATIELGVLEPRDYWGQGTQVTVSS	ratio	28

Please look at the following binder next.
Entry P2X7PMP14G4 (VHH, family 5, 2; on phage or c-myc/His6-tagged in assays) VHH: EVQLVESGGGLVQAGGSLGLSCAASGNFFRVNTMAWYRQAPGKQRELVADITRGDRTNYADTVNGRFTISRDNVRNTVYLQMNGLKPEDTAAYYCYARIELGVLEPRDYWGQGTQVTVSS , absorption ratio (ELISA) reported as 34
